The reported measurements were obtained from patent US9351989B2.

Recorded CC50 at 72 h by entry
Assay: Cytotoxicity assay (CellTiter-Glo)
Format: cell-based
Settings: human, Huh7 HCV genotype 1b replicon cells; toxicity to the cells; 72 h incubation; CellTiter-Glo cell viability
measurement-kind: CC50 at 72 h (µM)

[[record]]
compound = "COc1nc(N)nc2c1nc(I)n2[C@@H]1O[C@H](COP(=O)(N[C@@H](C)C(=O)OCc2ccccc2)N[C@@H](C)C(=O)OCc2ccccc2)[C@@H](O)[C@@]1(C)O"
measurement_kind = "CC50 at 72 h"
result_comparator = "="
test_value = 22

[[record]]
compound = "COc1nc(N)nc2c1nc(I)n2[C@@H]1O[C@H](COP(=O)(N[C@@H](C)C(=O)OCCC(C)(C)C)N[C@@H](C)C(=O)OCCC(C)(C)C)[C@@H](O)[C@@]1(C)O"
measurement_kind = "CC50 at 72 h"
result_comparator = "="
test_value = 11

[[record]]
compound = "COc1nc(N)nc2c1nc(I)n2[C@@H]1O[C@H](CO)[C@@H](O)[C@@]1(C)O"
measurement_kind = "CC50 at 72 h"
result_comparator = ">"
test_value = 100

[[record]]
compound = "COc1nc(N)nc2c1nc(I)n2[C@@H]1O[C@H](COP(=O)(N[C@@H](C)C(=O)OCC(C)(C)C)N[C@@H](C)C(=O)OCC(C)(C)C)[C@@H](O)[C@@]1(C)O"
measurement_kind = "CC50 at 72 h"
result_comparator = "="
test_value = 53

[[record]]
compound = "COc1nc(N)nc2c1nc(I)n2[C@@H]1O[C@H](COP(=O)(N[C@@H](C)C(=O)OC2CCCCC2)N[C@@H](C)C(=O)OC2CCCCC2)[C@@H](O)[C@@]1(C)O"
measurement_kind = "CC50 at 72 h"
result_comparator = "="
test_value = 54


----------
Experiment: Cytotoxicity assay (CellTiter-Glo)
Format: cell-based
Conditions: human; toxicity to the cells; 72 h incubation; CellTiter-Glo cell viability
// NB: equality with 10 µM counts as 0 (no); only CC50 at 72 h strictly below is 1 (yes)

[[record]]
compound = "CCCCOC(=O)[C@H](C)NP(=O)(OC[C@H]1O[C@@H](n2c(I)nc3c(OC)nc(N)nc32)[C@](C)(O)[C@@H]1O)Oc1cccc2ccccc12 (some centres unmarked)"
classification = "1 (yes)"

[[record]]
compound = "COc1nc(N)nc2c1nc(I)n2[C@@H]1O[C@H](COP(=O)(N[C@@H](C)C(=O)OC2CCCC2)Oc2cccc3ccccc23)[C@@H](O)[C@@]1(C)O (some centres unmarked)"
classification = "0 (no)"

[[record]]
compound = "COc1nc(N)nc2c1nc(I)n2[C@@H]1O[C@H](COP(=O)(N[C@@H](CCSC)C(=O)OCc2ccccc2)Oc2cccc3ccccc23)[C@@H](O)[C@@]1(C)O (some centres unmarked)"
classification = "0 (no)"

[[record]]
compound = "COc1nc(N)nc2c1nc(Cl)n2[C@@H]1O[C@H](COP(=O)(N[C@@H](C)C(=O)OCC(C)(C)C)Oc2cccc3ccccc23)[C@@H](O)[C@@]1(C)O (some centres unmarked)"
classification = "0 (no)"

[[record]]
compound = "COc1nc(N)nc2c1nc(I)n2[C@@H]1O[C@H](COP(=O)(N[C@@H](C)C(=O)OCc2ccc(F)cc2F)Oc2cccc3ccccc23)[C@@H](O)[C@@]1(C)O (some centres unmarked)"
classification = "1 (yes)"

[[record]]
compound = "COc1nc(N)nc2c1nc(I)n2[C@@H]1O[C@H](COP(=O)(N[C@@H](C)C(=O)OC2CCC2)Oc2cccc3ccccc23)[C@@H](O)[C@@]1(C)O (some centres unmarked)"
classification = "1 (yes)"

[[record]]
compound = "COc1nc(N)nc2c1nc(I)n2[C@@H]1O[C@H](COP(=O)(N[C@@H](C)C(=O)OCc2ccccc2)Oc2cccc3ccccc23)[C@@H](O)[C@@]1(C)O (some centres unmarked)"
classification = "0 (no)"

[[record]]
compound = "COc1nc(N)nc2c1nc(Br)n2[C@@H]1O[C@H](COP(=O)(N[C@@H](C)C(=O)OCC(C)(C)C)Oc2cccc3ccccc23)[C@@H](O)[C@@]1(C)O (some centres unmarked)"
classification = "0 (no)"

[[record]]
compound = "CCCOC(=O)[C@H](C)NP(=O)(OC[C@H]1O[C@@H](n2c(I)nc3c(OC)nc(N)nc32)[C@](C)(O)[C@@H]1O)Oc1cccc2ccccc12 (some centres unmarked)"
classification = "1 (yes)"

[[record]]
compound = "CCCCCOC(=O)[C@H](C)NP(=O)(OC[C@H]1O[C@@H](n2c(I)nc3c(OC)nc(N)nc32)[C@](C)(O)[C@@H]1O)Oc1cccc2ccccc12 (some centres unmarked)"
classification = "0 (no)"

[[record]]
compound = "COc1nc(N)nc2c1nc(I)n2[C@@H]1O[C@H](COP(=O)(N[C@@H](C)C(=O)OCC(C)(C)C)Oc2cccc3ccccc23)[C@@H](O)[C@@]1(C)O (some centres unmarked)"
classification = "0 (no)"

